# PROCEDURE_SUMMARY: PAMPA passive permeability;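 note: passive permeability across an artificial membrane in 96-well pre-coated PAMPA plates, which lack transporters and efflux systems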
# Format: in vitro ADME
# SETUP_CONDITIONS: Pe Avg
Starred links: 1 amine or outer side, 2 acyl side, 3 side chain; linkers in the order of their positions; H or OH if unused. Non-standard residues stand in square brackets, D forms with d. Residues, ends and D or L forms follow the SMILES beside them. X2 = CC(C)C[C@H](NC(=S)[C@@H](CC(C)C)N[*:1])C(=O)[*:2]; X5 = CC(C)C[C@H](NC(=S)[C@H](CC(C)C)N[*:1])C(=O)[*:2]; X18 = C[C@@H](N[*:1])C(=S)N1CCC[C@H]1C(=O)[*:2]
READOUT_KIND: Papp (×10⁻⁶ cm/s)

1) CC(C)C[C@@H]1NC(=O)[C@@H](CC(C)C)NC(=O)[C@H]2CCCN2C(=O)[C@H](CC(C)C)NC(=O)[C@@H](CC(C)C)NC(=O)[C@H](CC(C)C)NC(=O)[C@@H]2CCCN2C(=S)[C@@H](C)NC1=O [12f] (cyclo(L[dL]L[dP][dL]L[X18]))
6.4
2) CC(C)C[C@@H]1NC(=O)[C@@H]2CCCN2C(=O)[C@@H](C)NC(=O)[C@H](CC(C)C)NC(=S)[C@@H](CC(C)C)NC(=O)[C@H]2CCCN2C(=O)[C@H](CC(C)C)NC(=O)[C@@H](CC(C)C)NC1=O [12d] (cyclo(L[dL]L[dP][X2][dA]P))
8.9
3) CC(C)C[C@@H]1NC(=O)[C@H](Cc2ccc(O)cc2)NC(=O)[C@H]2CCCN2C(=O)[C@H](CC(C)C)NC(=S)[C@H](CC(C)C)NC(=O)[C@@H](CC(C)C)NC1=O [10b] (cyclo(L[dL][X5][dP]Y))
4.3
4) CC(C)C[C@@H]1NC(=O)[C@@H](CC(C)C)NC(=O)[C@H]2CCCN2C(=O)[C@H](CC(C)C)NC(=S)[C@@H](CC(C)C)NC(=O)[C@H](CC(C)C)NC(=O)[C@@H]2CCCN2C(=O)[C@@H](C)NC1=O [12a] (cyclo(L[dA]PL[X2][dP][dL]))
4.4
